# credit: ChEMBL document CHEMBL1121485

Assign Effect to each entry below.
molecular target: Estrogen receptor (Mus musculus) (UniProt O08537+P19785); assay: Anti-uterotrophic effect in mice as uterus dry weight(mg) compared to body weight(g) at 5 ug/day dose; format: functional, tissue-based
Sequence (O08537 whole entry, looked up): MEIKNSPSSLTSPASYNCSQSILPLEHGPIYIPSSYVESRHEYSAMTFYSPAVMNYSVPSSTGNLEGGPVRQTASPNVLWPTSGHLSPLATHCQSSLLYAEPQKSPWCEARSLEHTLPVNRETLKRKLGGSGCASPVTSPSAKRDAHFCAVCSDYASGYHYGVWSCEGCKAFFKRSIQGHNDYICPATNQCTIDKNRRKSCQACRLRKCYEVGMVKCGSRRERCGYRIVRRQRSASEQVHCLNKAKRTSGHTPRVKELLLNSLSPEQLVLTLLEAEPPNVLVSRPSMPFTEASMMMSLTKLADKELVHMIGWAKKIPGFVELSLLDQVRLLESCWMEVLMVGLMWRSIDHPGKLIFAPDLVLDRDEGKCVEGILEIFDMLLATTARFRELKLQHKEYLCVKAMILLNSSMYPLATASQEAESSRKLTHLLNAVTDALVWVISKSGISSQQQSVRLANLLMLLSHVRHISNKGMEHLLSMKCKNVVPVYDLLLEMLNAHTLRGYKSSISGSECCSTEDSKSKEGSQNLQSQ
Sequence (P19785 whole entry, looked up): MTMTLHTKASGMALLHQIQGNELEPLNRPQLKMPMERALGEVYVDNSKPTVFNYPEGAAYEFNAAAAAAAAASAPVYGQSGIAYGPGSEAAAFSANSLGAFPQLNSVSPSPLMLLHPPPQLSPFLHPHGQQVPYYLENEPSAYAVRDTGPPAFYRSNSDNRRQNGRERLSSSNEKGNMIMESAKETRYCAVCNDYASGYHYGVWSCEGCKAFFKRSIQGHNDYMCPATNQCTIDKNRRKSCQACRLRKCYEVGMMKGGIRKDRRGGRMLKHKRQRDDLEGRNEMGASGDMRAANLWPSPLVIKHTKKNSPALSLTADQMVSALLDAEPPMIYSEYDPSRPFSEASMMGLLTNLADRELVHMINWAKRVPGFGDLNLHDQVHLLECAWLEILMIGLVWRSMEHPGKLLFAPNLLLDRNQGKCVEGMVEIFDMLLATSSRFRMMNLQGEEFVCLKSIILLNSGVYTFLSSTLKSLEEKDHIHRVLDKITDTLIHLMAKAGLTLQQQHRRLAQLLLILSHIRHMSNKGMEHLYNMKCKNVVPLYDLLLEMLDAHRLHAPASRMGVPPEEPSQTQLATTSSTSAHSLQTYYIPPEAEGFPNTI

Worked set:
1. CC(C)(c1ccc(F)c(O)c1)C(C)(C)c1ccc(F)c(O)c1 36.1
2. CC(C)(c1ccc(O)cc1)C(C)(C)c1ccc(O)cc1 37.3
3. CC(C)(c1ccc(O)c(O)c1)C(C)(C)c1ccc(O)c(O)c1 38.6

Shifting focus to the compound that follows.
What value of measured Effect is listed for CC(C)(c1cccc(O)c1)C(C)(C)c1cccc(O)c1 ?
33.9

###

Assign Effect to each entry below.
target: Estrogen receptor (Mus musculus) (UniProt O08537+P19785); experiment: Anti-uterotrophic effect in mice as uterus dry weight(mg) compared to body weight(g) at 100 ug/day dose; assay type: functional, tissue-based
Answers are plain numbers.

Worked set:
compound	reported_result
CC(C)(c1ccc(F)c(O)c1)C(C)(C)c1ccc(F)c(O)c1	27.3
CC(C)(c1cccc(O)c1)C(C)(C)c1cccc(O)c1	20.4
CC(C)(c1ccc(O)cc1)C(C)(C)c1ccc(O)cc1	19.4
CC(C)(c1ccc(O)c(O)c1)C(C)(C)c1ccc(O)c(O)c1	28.4
CC(=O)Oc1ccc(C(C)(C)C(C)(C)c2ccc(OC(C)=O)c(OC(C)=O)c2)cc1OC(C)=O	41.6
CC(C)(c1cc(O)cc(O)c1)C(C)(C)c1cc(O)cc(O)c1	40.4
CCC(C)(c1ccc(O)cc1)C(C)(CC)c1ccc(O)cc1 (stereo not drawn)	38.2

Shifting focus to the compound that follows.
What value of measured Effect is listed for CC(=O)Oc1cc(OC(C)=O)cc(C(C)(C)C(C)(C)c2cc(OC(C)=O)cc(OC(C)=O)c2)c1 ?
41.3

###

target: Estrogen receptor (Mus musculus) (UniProt O08537+P19785); assay: Uterotrophic effect in mice as uterus dry weight(mg) compared to body weight(g) at 0 ug/day dose; assay type: functional, tissue-based
Assign Effect to each entry below.
Give bare numbers.

compound	Effect
CC(C)(c1ccc(F)c(O)c1)C(C)(C)c1ccc(F)c(O)c1	15.4
CC(C)(c1cccc(O)c1)C(C)(C)c1cccc(O)c1	9.2
CC(=O)Oc1cc(OC(C)=O)cc(C(C)(C)C(C)(C)c2cc(OC(C)=O)cc(OC(C)=O)c2)c1	11.4
CC(C)(c1ccc(O)c(O)c1)C(C)(C)c1ccc(O)c(O)c1	9.6
CC(C)(c1cc(O)cc(O)c1)C(C)(C)c1cc(O)cc(O)c1	9.6
CC(=O)Oc1ccc(C(C)(C)C(C)(C)c2ccc(OC(C)=O)c(OC(C)=O)c2)cc1OC(C)=O	11.4
CCC(CC)(c1ccc(O)cc1)C(CC)(CC)c1ccc(O)cc1	9.2
CC(C)(c1ccc(O)cc1)C(C)(C)c1ccc(O)cc1	9.2

Hey, can you go through the list below and give me Effect for every item?
1. CCC(CC)(c1cccc(O)c1)C(CC)(CC)c1cccc(O)c1
2. CCC(C)(c1ccc(O)cc1)C(C)(CC)c1ccc(O)cc1 (stereo not given)

[15.4, 15.4]

###

molecular target: Estrogen receptor (Mus musculus) (UniProt O08537+P19785); experiment: Anti-uterotrophic effect in mice as uterus dry weight(mg) compared to body weight(g) at 10 ug/day dose; type: functional, tissue-based
Assign Effect to each entry below.
Answers are plain numbers.

compound	Effect
CC(=O)Oc1cc(OC(C)=O)cc(C(C)(C)C(C)(C)c2cc(OC(C)=O)cc(OC(C)=O)c2)c1	37.5
CCC(CC)(c1cccc(O)c1)C(CC)(CC)c1cccc(O)c1	32.8
CCC(C)(c1ccc(O)cc1)C(C)(CC)c1ccc(O)cc1 (stereo unspecified)	34.6
CCC(CC)(c1ccc(O)cc1)C(CC)(CC)c1ccc(O)cc1	34.6
CC(=O)Oc1ccc(C(C)(C)C(C)(C)c2ccc(OC(C)=O)c(OC(C)=O)c2)cc1OC(C)=O	37.8

Shifting focus to the compound that follows.
What value of measured Effect is listed for CC(C)(c1cc(O)cc(O)c1)C(C)(C)c1cc(O)cc(O)c1 ?
30.6

###

target: Estrogen receptor (Bos taurus) (UniProt Q9XSB5+P49884); experiment: Ratio of association constants for estradiol and compound in estrogen receptor binding assay; type: protein assay
attribute_measured: RAC
Answers are plain numbers.

Hey, can you go through the list below and give me RAC for every item?
1. CCC(c1cccc(O)c1)C(CC)c1cccc(O)c1 (stereo unspecified)
2. CC(=O)Oc1cc(OC(C)=O)cc(C(C)(C)C(C)(C)c2cc(OC(C)=O)cc(OC(C)=O)c2)c1
3. CCC(CC)(c1ccc(O)cc1)C(CC)(CC)c1ccc(O)cc1

1: 0.048; 2: 6.6e-05; 3: 0.0046

Hey, can you go through the list below and give me RAC for every item?
1. CCC(C)(c1ccc(O)cc1)C(C)(CC)c1ccc(O)cc1 (stereo unspecified)
2. CC(=O)Oc1ccc(C(C)(C)C(C)(C)c2ccc(OC(C)=O)c(OC(C)=O)c2)cc1OC(C)=O
3. CCC(CC)(c1cccc(O)c1)C(CC)(CC)c1cccc(O)c1
4. CC(C)(c1cc(O)cc(O)c1)C(C)(C)c1cc(O)cc(O)c1
5. CC(C)(c1ccc(F)c(O)c1)C(C)(C)c1ccc(F)c(O)c1
6. CC(C)(c1ccc(O)c(O)c1)C(C)(C)c1ccc(O)c(O)c1
7. CC(C)(c1cccc(O)c1)C(C)(C)c1cccc(O)c1

1: 0.0025; 2: 0.00021; 3: 0.0039; 4: 4e-05; 5: 0.0029; 6: 0.0056; 7: 0.0093

What value of measured RAC is listed for CC(C)(c1ccc(O)cc1)C(C)(C)c1ccc(O)cc1 ?
0.01

###

organism: Mus musculus; test: Inhibition of estrone-stimulated uterine growth in mice at 100 ug
Assign Inhibition to each entry below.
Numbers only, in %.

Worked set:
1. CC(C)(c1cccc(O)c1)C(C)(C)c1cccc(O)c1 70.3
2. CC(=O)Oc1ccc(C(C)(C)C(C)(C)c2ccc(OC(C)=O)c(OC(C)=O)c2)cc1OC(C)=O 0.3

Hey, can you go through the list below and give me Inhibition for every item?
1. CC(=O)Oc1cc(OC(C)=O)cc(C(C)(C)C(C)(C)c2cc(OC(C)=O)cc(OC(C)=O)c2)c1
2. CC(C)(c1ccc(O)c(O)c1)C(C)(C)c1ccc(O)c(O)c1
3. CC(C)(c1ccc(F)c(O)c1)C(C)(C)c1ccc(F)c(O)c1

[1.6, 45.5, 53.1]

What value of measured Inhibition is listed for CC(C)(c1ccc(O)cc1)C(C)(C)c1ccc(O)cc1 ?
73.5

###

biological target: Estrogen receptor (Mus musculus) (UniProt O08537+P19785); assay: Anti-uterotrophic effect in mice as uterus dry weight(mg) compared to body weight(g) at 250 ug/day dose; type: functional, tissue-based
attribute_measured: Effect
Answers are plain numbers.

Worked set:
1. CC(C)(c1ccc(O)cc1)C(C)(C)c1ccc(O)cc1 19.3
2. CCC(CC)(c1ccc(O)cc1)C(CC)(CC)c1ccc(O)cc1 43.2

Hey, can you go through the list below and give me Effect for every item?
1. CC(C)(c1cccc(O)c1)C(C)(C)c1cccc(O)c1
2. CCC(CC)(c1cccc(O)c1)C(CC)(CC)c1cccc(O)c1

19.4
42.9

###

species: Mus musculus; assay: Inhibition of estrone-stimulated uterine growth in mice at 25 ug
Threshold 10%. Inhibition below it: yes. Inhibition at it or above: no.

compound	class_assignment
CCC(CC)(c1ccc(O)cc1)C(CC)(CC)c1ccc(O)cc1	yes
CC(C)(c1ccc(F)c(O)c1)C(C)(C)c1ccc(F)c(O)c1	no
CC(C)(c1ccc(O)c(O)c1)C(C)(C)c1ccc(O)c(O)c1	no
CC(C)(c1cccc(O)c1)C(C)(C)c1cccc(O)c1	no
CC(C)(c1ccc(O)cc1)C(C)(C)c1ccc(O)cc1	no

Regarding CC(=O)Oc1cc(OC(C)=O)cc(C(C)(C)C(C)(C)c2cc(OC(C)=O)cc(OC(C)=O)c2)c1 , kindly confirm whether its Inhibition is beneath 10%.
yes

What do you get for CC(=O)Oc1ccc(C(C)(C)C(C)(C)c2ccc(OC(C)=O)c(OC(C)=O)c2)cc1OC(C)=O ?
no

What do you get for CCC(C)(c1ccc(O)cc1)C(C)(CC)c1ccc(O)cc1 (stereo not drawn) ?
no

###

molecular target: Estrogen receptor (Mus musculus) (UniProt O08537+P19785); test: Uterotrophic effect in mice as uterus dry weight(mg) compared to body weight(g) at 100 ug/day dose; assay type: functional, tissue-based
Assign Effect to each entry below.

1. CC(C)(c1ccc(O)c(O)c1)C(C)(C)c1ccc(O)c(O)c1 10

Hey, can you go through the list below and give me Effect for every item?
1. CCC(CC)(c1cccc(O)c1)C(CC)(CC)c1cccc(O)c1
2. CC(C)(c1ccc(F)c(O)c1)C(C)(C)c1ccc(F)c(O)c1
3. CC(C)(c1cc(O)cc(O)c1)C(C)(C)c1cc(O)cc(O)c1

52.7
16.7
8.5
